# Assay: Paramagnetic relaxation properties in human plasma at 37°C
# Type: physicochemical
# Test Parameters: versus gadolinium diethylenetriaminepentaacetic acid chelate (GdDTPA)
Observed Property: T₁ relaxivity in plasma, fold greater than GdDTPA
Returns: string containing the number followed by the unit.

Input line: Give the measured T₁ relaxivity in plasma, fold greater than GdDTPA of "C[NH2+]CC(=O)[O-].C[NH2+]CC(=O)[O-].O.O.[Cl-].[Cl-].[Mn+2]" .
Output line: 9.7 fold

Input line: I have this compound here, "N[C@@H](Cc1c[nH]cn1)C(=O)O.N[C@@H](Cc1c[nH]cn1)C(=O)O.O.O.[Cl-].[Cl-].[Mn+2]" , and I need its recorded T₁ relaxivity in plasma, fold greater than GdDTPA.
Output line: 9.7 fold

Input line: Requested field: T₁ relaxivity in plasma, fold greater than GdDTPA. Item: "N=C(N)NCCC[C@H](N)C(=O)O.N=C(N)NCCC[C@H](N)C(=O)O.O.O.[Cl-].[Cl-].[Mn+2]"
Output line: 5.2 fold

Input line: May I ask what T₁ relaxivity in plasma, fold greater than GdDTPA has been recorded for "CSCC[C@H](N)C(=O)O.CSCC[C@H](N)C(=O)O.O.O.[Cl-].[Cl-].[Mn+2]" ?
Output line: 8.8 fold

Input line: Return reported T₁ relaxivity in plasma, fold greater than GdDTPA; argument: "N[C@@H](CS)C(=O)O.N[C@@H](CS)C(=O)O.O.O.[Cl-].[Cl-].[Mn+2]"
Output line: 9.2 fold

Input line: Entry "NC(=O)C[C@H]([NH3+])C(=O)[O-].NC(=O)C[C@H]([NH3+])C(=O)[O-].O.O.[Cl-].[Cl-].[Mn+2]" : reported T₁ relaxivity in plasma, fold greater than GdDTPA = ?
Output line: 9.5 fold

Input line: Fill in the blank: the reported T₁ relaxivity in plasma, fold greater than GdDTPA of "N[C@@H](CO)C(=O)O.N[C@@H](CO)C(=O)O.O.O.[Cl-].[Cl-].[Mn+2]" is ____.
Output line: 9.4 fold

Input line: Name the recorded T₁ relaxivity in plasma, fold greater than GdDTPA for "NCC(=O)O.NCC(=O)O.O.O.[Cl-].[Cl-].[Mn+2]" .
Output line: 9.8 fold

Input line: For the compound "C[C@@H](O)[C@H](N)C(=O)O.C[C@@H](O)[C@H](N)C(=O)O.O.O.[Cl-].[Cl-].[Mn+2]" , what T₁ relaxivity in plasma, fold greater than GdDTPA is on record?
Output line: 9.4 fold

Input line: Given "O.O.O=C(O)[C@@H]1CCCN1.O=C(O)[C@@H]1CCCN1.[Cl-].[Cl-].[Mn+2]" , state its recorded T₁ relaxivity in plasma, fold greater than GdDTPA.
Output line: 9.7 fold

Input line: Consider the compound "CC[C@H](C)[C@H](N)C(=O)O.CC[C@H](C)[C@H](N)C(=O)O.O.O.[Cl-].[Cl-].[Mn+2]" and give its measured T₁ relaxivity in plasma, fold greater than GdDTPA.
Output line: 9.9 fold

Input line: Look up T₁ relaxivity in plasma, fold greater than GdDTPA for this compound: "CC(C)[C@H](N)C(=O)O.CC(C)[C@H](N)C(=O)O.O.O.[Cl-].[Cl-].[Mn+2]"
Output line: 9.1 fold

Input line: I would be grateful if you could share the reported T₁ relaxivity in plasma, fold greater than GdDTPA for "N[C@@H](Cc1ccccc1)C(=O)O.N[C@@H](Cc1ccccc1)C(=O)O.O.O.[Cl-].[Cl-].[Mn+2]" .
Output line: 9.65 fold

Input line: For "NCCCC[C@H](N)C(=O)O.NCCCC[C@H](N)C(=O)O.O.O.[Cl-].[Cl-].[Mn+2]" , what is its reported T₁ relaxivity in plasma, fold greater than GdDTPA?
Output line: 9.9 fold

Input line: Field request: T₁ relaxivity in plasma, fold greater than GdDTPA | item: "O.O.O=C(O)[C@@H]1C[C@@H](O)CN1.O=C(O)[C@@H]1C[C@@H](O)CN1.[Cl-].[Cl-].[Mn+2]"
Output line: 9.1 fold

Input line: Any idea what its T₁ relaxivity in plasma, fold greater than GdDTPA is? The compound is "CC(C)C[C@H](N)C(=O)O.CC(C)C[C@H](N)C(=O)O.O.O.[Cl-].[Cl-].[Mn+2]"
Output line: 9.5 fold

Input line: Fill in: T₁ relaxivity in plasma, fold greater than GdDTPA of "N[C@@H](CC(=O)O)C(=O)O.N[C@@H](CC(=O)O)C(=O)O.O.O.[Cl-].[Cl-].[Mn+2]" is ___
Output line: 9.7 fold

Input line: Reported T₁ relaxivity in plasma, fold greater than GdDTPA, compound "N[C@@H](Cc1ccc(O)cc1)C(=O)O.N[C@@H](Cc1ccc(O)cc1)C(=O)O.O.O.[Cl-].[Cl-].[Mn+2]" : ____
Output line: 10.3 fold

Input line: # input compound: "NC(=O)CC[C@H](N)C(=O)O.NC(=O)CC[C@H](N)C(=O)O.O.O.[Cl-].[Cl-].[Mn+2]" ; wanted: its T₁ relaxivity in plasma, fold greater than GdDTPA
Output line: 9.2 fold

Input line: // query T₁ relaxivity in plasma, fold greater than GdDTPA value for entry "C[C@H](N)C(=O)O.C[C@H](N)C(=O)O.O.O.[Cl-].[Cl-].[Mn+2]"
Output line: 9.3 fold
